# Test: In vitro effective concentration tested on HEK293 cells co-transfected with ferret Dopamine receptor D4 using FLIPR assay
Measured Quantity: EC50 (nM)
Numeric only. Scale: nM

Study these solved cases before continuing.
c1ccc(N2CCN(Cc3nc4ccccc4[nH]3)CC2)nc1 | 23.2
CN1CCc2cccc3c2[C@H]1Cc1ccc(O)c(O)c1-3 [APOKYN] | 1.5
NCCc1ccc(O)c(O)c1 | 2.7

Query compound follows.
Name the reported EC50 value associated with the compound `Fc1ccc2[nH]c(CN3CCN(c4ccccn4)CC3)cc2c1`
22

* * *

# Test: In vitro effective concentration tested on HEK293 cells co-transfected with ferret Dopamine receptor D2 using FLIPR assay
Measured Quantity: EC50 (nM)
Numeric only. Scale: nM

Name the reported EC50 value associated with the compound `Fc1ccc2[nH]c(CN3CCN(c4ccccn4)CC3)cc2c1`
527

The measurements presented in this section are drawn from BindingDB's records for doi:10.1021/jm030505a.
